Molecular target: WT STING (Homo sapiens, UniProt Q86WV6, H232R)
Construct: 8xHis (N, cleaved yes); SUMO (N, cleaved yes); made in house
Sequence (Q86WV6 140-343 H232R): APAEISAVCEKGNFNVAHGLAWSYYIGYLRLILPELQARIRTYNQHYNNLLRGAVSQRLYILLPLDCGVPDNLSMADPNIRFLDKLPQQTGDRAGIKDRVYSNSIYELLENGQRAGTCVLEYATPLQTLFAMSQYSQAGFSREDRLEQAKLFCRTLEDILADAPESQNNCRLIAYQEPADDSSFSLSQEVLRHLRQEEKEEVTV
Experiment: Differential Scanning Fluorimetry with WT STING
Type: binding
Details: thermal shift vs apoprotein; 150 μM CDN; truncated WT STING 0.1 mg/ml
Collected DSF ΔTm WT STING values appear next to each entry.

[
  {
    "COMPOUND": "Nc1ncnc2c1ncn2[C@@H]1O[C@@H]2COP(=O)(S)O[C@H]3[C@@H](F)[C@H](n4cnc5c(N)ncnc54)O[C@@H]3COP(=O)(O)CO[C@H]2[C@H]1F (single isomer, unassigned) [Compound 11a]",
    "DSF ΔTm WT STING": "4.8 °C"
  },
  {
    "COMPOUND": "Nc1ncnc2c1ncn2[C@@H]1O[C@@H]2COP(=O)(S)O[C@H]3[C@@H](F)[C@H](n4cnc5c(N)ncnc54)O[C@@H]3COP(=O)(S)CO[C@H]2[C@H]1F (single isomer, unassigned) [Compound 14b]",
    "DSF ΔTm WT STING": "8.6 °C"
  },
  {
    "COMPOUND": "Nc1ncnc2c1ncn2[C@@H]1O[C@@H]2COP(=O)(S)O[C@H]3[C@@H](F)[C@H](n4cnc5c(N)ncnc54)O[C@@H]3COP(=O)(S)CO[C@H]2[C@H]1F (single isomer, unassigned) [Compound 14c]",
    "DSF ΔTm WT STING": "8.2 °C"
  },
  {
    "COMPOUND": "Nc1ncnc2c1ncn2[C@@H]1O[C@@H]2COP(=O)(O)O[C@H]3[C@@H](F)[C@H](n4cnc5c(N)ncnc54)O[C@@H]3COP(=O)(O)CO[C@H]2[C@H]1F",
    "DSF ΔTm WT STING": "9.4 °C"
  },
  {
    "COMPOUND": "Nc1ncnc2c1ncn2[C@@H]1O[C@@H]2COP(=O)(S)O[C@H]3[C@@H](F)[C@H](n4cnc5c(N)ncnc54)O[C@@H]3COP(=O)(S)CO[C@H]2[C@H]1F (single isomer, unassigned) [Compound 14a]",
    "DSF ΔTm WT STING": "8.3 °C"
  },
  {
    "COMPOUND": "Nc1ncnc2c1ncn2[C@@H]1O[C@@H]2COP(=O)(S)O[C@H]3[C@@H](F)[C@H](n4cnc5c(N)ncnc54)O[C@@H]3COP(=O)(O)CO[C@H]2[C@H]1F (single isomer, unassigned) [Compound 11b]",
    "DSF ΔTm WT STING": "13.6 °C"
  },
  {
    "COMPOUND": "Nc1ncnc2c1ncn2[C@@H]1O[C@@H]2COP(=O)(O)O[C@H]3[C@@H](O)[C@H](n4cnc5c(N)ncnc54)O[C@@H]3COP(=O)(O)O[C@H]2[C@H]1O [3′3′-c-di-AMP, reference compound]",
    "DSF ΔTm WT STING": "2.5 °C"
  }
]

* * *

Tested on: peripheral blood mononuclear cell (PBMC)
Assay: Peripheral blood mononuclear cell assay (cytokine levels)
Assay type: cell-based
Settings: 1 h with compound, wash, 15 hour incubation, average of one to four donors, read-out: PBMC EC50 IFN-γ
pEC50: −log10 of the molar value.

[
  {
    "COMPOUND": "CCCCCCCCCCCC(=O)OCSP1(=O)OC[C@H]2O[C@@H](n3cnc4c(N)ncnc43)[C@H](F)[C@@H]2OCP(=O)(O)OC[C@H]2O[C@@H](n3cnc4c(N)ncnc43)[C@H](F)[C@@H]2O1 (single isomer, unassigned) [Compound 31b]",
    "ASSAYED_SYSTEM": "peripheral blood mononuclear cell (PBMC)",
    "pEC50": 6.52
  },
  {
    "COMPOUND": "CC1(C(=O)OCOP2(=O)CO[C@H]3[C@@H](F)[C@H](n4cnc5c(N)ncnc54)O[C@@H]3COP(=O)(OCOC(=O)C3(C)CCCCC3)O[C@H]3[C@@H](F)[C@H](n4cnc5c(N)ncnc54)O[C@@H]3CO2)CCCCC1 (single isomer, unassigned) [Compound 45a]",
    "ASSAYED_SYSTEM": "peripheral blood mononuclear cell (PBMC)",
    "pEC50": 5.10
  }
]
